Test system: POLCO
test_name: Post-emergence herbicidal action
Type: in vivo
condition_description: Table 5, post-emergence (PO), 320 g/ha, assessed after about 3 weeks
The label is rule met for Herbicidal action against POLCO below 70% and rule not met for Herbicidal action against POLCO equal to or exceeding 70%.

As a guide, the following entries are already answered.
- entry_smiles: "Nc1c(Cl)c(C(=O)OCc2cccc(C(F)(F)F)c2)nc(Cl)c1-c1ccc2sccc2c1"
  class_assignment: "rule met"
- entry_smiles: "COc1ccc(COC(=O)c2nc(-c3ccc4ccoc4c3)c(F)c(N)c2Cl)cc1"
  class_assignment: "rule met"
- entry_smiles: "Nc1c(F)c(-c2ccc3occc3c2)nc(C(=O)OCc2ccc(F)cc2)c1Cl"
  class_assignment: "rule not met"
- entry_smiles: "Nc1c(F)c(-c2ccc3ccsc3c2)nc(C(=O)OCc2c(F)cc(F)cc2F)c1Cl"
  class_assignment: "rule not met"
- entry_smiles: "Nc1cc(-c2ccc3occc3c2)nc(C(=O)OCc2ccc(F)c(F)c2F)c1Cl"
  class_assignment: "rule not met"
- entry_smiles: "Nc1cc(-c2ccc3sccc3c2)nc(C(=O)OCc2ccc(C(F)(F)F)cc2)c1Cl"
  class_assignment: "rule not met"

Problem: Lab note: confirm whether the reported Herbicidal action against POLCO for this molecule is below 70%, equality not counting. molecule: `Nc1cc(-c2ccc3ncsc3c2)nc(C(=O)OCc2cccc(F)c2)c1Cl`
Solution: rule met

---

# reported Herbicidal action against ABUTH; entries follow
Tested on: ABUTH
test_name: Post-emergence herbicidal action
Assay type: in vivo
condition_description: Table 5, post-emergence (PO), 320 g/ha, assessed after about 3 weeks
Give the value, in units of %, as a plain number.

Examples with answers:
- compound: "COc1ccc(COC(=O)c2nc(-c3ccc4ccoc4c3)c(F)c(N)c2Cl)c(OC)c1 [Example I-35]"
  Herbicidal action against ABUTH, %: 80
- compound: "Nc1c(F)c(-c2ccc3ccsc3c2)nc(C(=O)OCc2c(F)cc(F)cc2F)c1Cl [Example I-55]"
  Herbicidal action against ABUTH, %: 60
- compound: "Nc1c(F)c(-c2ccc3sccc3c2)nc(C(=O)OCc2ccc(Cl)cc2)c1Cl [Example I-65]"
  Herbicidal action against ABUTH, %: 80
- compound: "Nc1cc(-c2ccc3ccoc3c2)nc(C(=O)OCc2cccc(F)c2)c1Cl [Example I-02]"
  Herbicidal action against ABUTH, %: 90
- compound: "Nc1c(F)c(-c2ccc3ccoc3c2)nc(C(=O)OCc2ccc(F)cc2)c1Cl [Example I-04]"
  Herbicidal action against ABUTH, %: 100
- compound: "COc1c(F)ccc(COC(=O)c2nc(-c3ccc4sccc4c3)cc(N)c2Cl)c1F [Example I-22]"
  Herbicidal action against ABUTH, %: 100

Value of measured Herbicidal action against ABUTH for the entry Nc1cc(-c2ccc3sccc3c2)nc(C(=O)OCc2ccc(Cl)cc2)c1Cl [Example I-19] : 90

Value of measured Herbicidal action against ABUTH for the entry Nc1cc(-c2ccc3ccsc3c2)nc(C(=O)OCc2ccc(F)cc2)c1Cl [Example I-07] : 100

Value of measured Herbicidal action against ABUTH for the entry Nc1c(F)c(-c2ccc3ccsc3c2)nc(C(=O)OCc2ccc(F)cc2)c1Cl [Example I-53] : 80

Value of measured Herbicidal action against ABUTH for the entry Nc1cc(-c2ccc3sccc3c2)nc(C(=O)OCc2cccc(F)c2)c1Cl [Example I-09] : 100

Value of measured Herbicidal action against ABUTH for the entry Nc1cc(-c2ccc3sccc3c2)nc(C(=O)OCc2ccc(C(F)(F)F)cc2)c1Cl [Example I-16] : 100

Value of measured Herbicidal action against ABUTH for the entry Nc1c(F)c(-c2ccc3sccc3c2)nc(C(=O)OCc2ccc(F)cc2)c1Cl [Example I-29] : 80

Hey, just so you know, these numbers are from patent US20200187499A1.
